- TARGET_SYSTEM: human PLK4 (Homo sapiens (Human), UniProt O00444)
- Sequence (O00444 1-391): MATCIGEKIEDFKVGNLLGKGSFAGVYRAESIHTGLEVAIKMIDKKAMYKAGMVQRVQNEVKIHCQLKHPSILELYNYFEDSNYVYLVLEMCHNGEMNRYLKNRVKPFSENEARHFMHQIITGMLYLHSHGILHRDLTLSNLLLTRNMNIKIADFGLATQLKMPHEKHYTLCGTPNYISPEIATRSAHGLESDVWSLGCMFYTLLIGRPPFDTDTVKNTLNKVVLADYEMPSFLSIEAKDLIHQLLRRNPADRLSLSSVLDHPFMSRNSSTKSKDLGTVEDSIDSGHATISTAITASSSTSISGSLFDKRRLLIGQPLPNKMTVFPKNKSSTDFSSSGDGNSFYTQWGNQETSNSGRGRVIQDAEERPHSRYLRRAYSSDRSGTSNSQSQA
- RUN_DESCRIPTION: PLK4 inhibition assay (indirect ELISA)
- Assay type: biochemical
- TEST_CONDITIONS: read-out: PLK4 IC50 Ranges
pIC50: −log10 of the molar value. Structures can show the parent of a compound that is named as a salt.
The reader will find reported pIC50 values listed item by item below.

Worked examples follow.
MOLECULE	RESULT
COc1ccc2c(c1)[C@@]1(C[C@@H]1c1ccc3c(-c4ccc(N5CCNCC5)cc4)n[nH]c3c1)C(=O)N2 [Example A50, 2,2,2-trifluoroacetate]	> 7.00
C[C@@H]1CCC[C@H](C)N1Cc1ccc(/C=C/c2n[nH]c3cc([C@@H]4C[C@@]45C(=O)Nc4ccccc45)ccc23)cc1 [Example A201, 2,2,2-trifluoroacetate]	> 7.00
CCc1ccc2c(c1)[C@]1(C[C@H]1c1ccc3c(-c4cccc(CN5CCOCC5)c4)n[nH]c3c1)C(=O)N2 (relative stereo) [Example A141, 2,2,2-trifluoroacetate]	< 6.00

Query string: Could you tell me which pIC50 is on file for COc1ccc2c(c1)[C@]1(C[C@H]1c1ccc3c(/C=C/c4ccc(CN5CCOCC5)s4)n[nH]c3c1)C(=O)N2 [Example A105, hydrochloride] ?
Result string: > 7.00

Query string: For the molecule COc1cc2c(cc1OC)[C@]1(C[C@H]1c1ccc3c(-c4ccc(N5CCN(C)CC5)cc4)n[nH]c3c1)C(=O)N2 (relative stereo) [Example A144, 2,2,2-trifluoroacetate] , what pIC50 is on record?
Result string: 6.00 to 7.00

Query string: What value of measured pIC50 is listed for O=C1Nc2ccccc2[C@]12C[C@H]2c1ccc2c(/C=C/c3csc(CN4CCOCC4)c3)n[nH]c2c1 [Example A202, 2,2,2-trifluoroacetate] ?
Result string: > 7.00

Query string: Quick check: pIC50 of CN1C(=O)[C@@]2(C[C@H]2c2ccc3c(/C=C/c4ccc(CN5CCCC5)cc4)n[nH]c3c2)c2ccccc21 [Example A115, 2,2,2-trifluoroacetate] ?
Result string: > 7.00

Query string: Sample COc1ccc2c(c1)[C@]1(C[C@H]1c1ccc3c(/C=C/c4cc(F)c(CN(C)C)c(F)c4)n[nH]c3c1)C(=O)N2 [Example A216, 2,2,2-trifluoroacetate] — what was its pIC50?
Result string: > 7.00

Query string: Can you share its pIC50? I mean this molecule: CN1CCN(c2ccc(-c3n[nH]c4cc([C@@H]5C[C@@]56C(=O)Nc5ccc(N)cc56)ccc34)cc2)CC1 (relative stereo)
Result string: > 7.00

Query string: Look up pIC50: COc1ccc2c(c1)[C@]1(C[C@H]1c1ccc3c(/C=C/c4ccc(CN5CCCC5)cc4)n[nH]c3c1)C(=O)N2 [Example A83, 2,2,2-trifluoroacetate]
Result string: > 7.00

Query string: pIC50 lookup needed for CCN1CCN(c2ccc(-c3n[nH]c4cc([C@@H]5C[C@@]56C(=O)Nc5ccc(OC)cc56)ccc34)cc2)CC1 [Example A99, 2,2,2-trifluoroacetate] , thanks.
Result string: > 7.00

Query string: May I ask what pIC50 has been recorded for COc1ccc2c(c1)[C@]1(C[C@H]1c1ccc3c(-c4cccc(CN5CCCCC5)c4)n[nH]c3c1)C(=O)N2 (relative stereo) [Example A44, 2,2,2-trifluoroacetate] ?
Result string: > 7.00
